Attribute: ΔTm at 500 µM
Target: KMT9 (Homo sapiens)
Experiment: KMT9 thermal shift assay (SyproOrange)
Format: binding
Details: ΔTm; 500 µM compound, 2 μM KMT9, 5X SO; read-out: Thermal shift
Experimental: The assay was carried out in 96-well Hard-Shell PCR plates (Bio-Rad Laboratories Inc.). Assay buffer consisted of 50 mM BTP, 1 mM MgCl2 and 1 mM DTT at a pH of 8.5 (adjusted using 1 M HCl and 1 M NaOH). 20X inhibitor stock (in DMSO), 2X enzyme stock and 4X SyproOrange (SO) stock (both in assay buffer) were prepared. 1 μL of 20X compound, 4 μL of assay buffer, 10 μL of 2X KMT9 and 5 μL of 4X SO were pipetted. […] After every step, fluorescence was measured in FRET mode. […]
reportedProperty: ΔTm at 500 µM

[[record]]
compound = "CNc1ncnc2c1ccn2[C@@H]1C[C@H](CN2CCC23CNC3)[C@@H](O)[C@H]1O"
val = "≤ 10 °C"

[[record]]
compound = "CNc1ncnc2c1ccn2[C@@H]1C[C@H](CN2CCCCC23CCNC3)[C@@H](O)[C@H]1O (stereo partly shown)"
val = "≤ 10 °C"

[[record]]
compound = "O[C@@H]1[C@@H](CNCCCNCCc2ccccc2)C[C@@H](n2cc(-c3nc(Oc4ccccc4)cs3)c3cncnc32)[C@@H]1O"
val = "10 to 15 °C"

[[record]]
compound = "CCc1cn([C@@H]2C[C@H](CNCCCNCCc3cccc(Oc4ccccc4)c3)[C@@H](O)[C@H]2O)c2ncnc(N)c12"
val = "15 to 20 °C"

[[record]]
compound = "Nc1ncnc2c1ncn2[C@@H]1O[C@H](C(=O)NCCCNC(=O)Nc2ccccc2)[C@@H](O)[C@H]1O"
val = "≤ 10 °C"

[[record]]
compound = "Cc1cn([C@@H]2C[C@H](CNCCCNCCc3ccccc3)[C@@H](O)[C@H]2O)c2ncnc(N)c12"
val = "10 to 15 °C"

[[record]]
compound = "CCc1cn([C@@H]2C[C@H](CNCCCNCCc3ccc(F)cc3F)[C@@H](O)[C@H]2O)c2ncnc(N)c12"
val = "10 to 15 °C"


---

Attribute: ΔTm at 500 µM
Target: KMT9 (Homo sapiens, UniProt Q9Y5N5)
Sequence (Q9Y5N5 1-214): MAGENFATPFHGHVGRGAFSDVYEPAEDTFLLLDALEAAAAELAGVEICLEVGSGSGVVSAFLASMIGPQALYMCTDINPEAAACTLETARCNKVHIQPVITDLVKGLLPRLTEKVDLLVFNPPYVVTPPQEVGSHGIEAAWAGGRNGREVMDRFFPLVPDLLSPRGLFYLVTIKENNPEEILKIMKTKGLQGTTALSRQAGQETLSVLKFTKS
Sequence (Q9UI30 1-120 isoform Q9UI30-2 partner): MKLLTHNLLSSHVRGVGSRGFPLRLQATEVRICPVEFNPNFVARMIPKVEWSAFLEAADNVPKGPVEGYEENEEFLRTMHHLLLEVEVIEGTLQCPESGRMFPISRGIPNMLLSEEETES
Test: KMT9 thermal shift assay (SyproOrange)
Type: binding
Conditions: ΔTm; 500 µM compound, 2 μM KMT9, 5X SO; read-out: Thermal shift
reportedProperty: ΔTm at 500 µM

[[record]]
compound = "CNc1ncnc2c1ccn2[C@@H]1C[C@H](CSCCNCCc2ccccc2)[C@@H](O)[C@H]1O"
reportedproperty = "ΔTm at 500 µM"
val = "≤ 10 °C"

[[record]]
compound = "O[C@@H]1[C@@H](CNCCCNCCc2ccccc2)C[C@@H](n2cc3c4c(ncnc42)NCCCC3)[C@@H]1O"
reportedproperty = "ΔTm at 500 µM"
val = "10 to 15 °C"

[[record]]
compound = "Nc1ncnc2c1c(-c1nccs1)cn2[C@@H]1C[C@H](CN(CCCNCCc2ccc(F)cc2)c2cn[nH]c2)[C@@H](O)[C@H]1O"
reportedproperty = "ΔTm at 500 µM"
val = "15 to 20 °C"

[[record]]
compound = "Nc1ncnc2c1c(-c1nc(Cc3ccccc3)cs1)cn2[C@@H]1C[C@H](CNCCCNCCc2ccccc2)[C@@H](O)[C@H]1O"
reportedproperty = "ΔTm at 500 µM"
val = "15 to 20 °C"

[[record]]
compound = "Nc1ncnc2c1c(Br)cn2[C@@H]1C[C@H](C(=O)NC[C@H]2CCCNC2)[C@@H](O)[C@H]1O"
reportedproperty = "ΔTm at 500 µM"
val = "10 to 15 °C"

[[record]]
compound = "CNc1ncnc2c1ccn2[C@@H]1C[C@H](CNCC2CNCCO2)[C@@H](O)[C@H]1O (mixture of isomers)"
reportedproperty = "ΔTm at 500 µM"
val = "≤ 10 °C"

[[record]]
compound = "Nc1ncnc2c1c(-c1nccs1)cn2[C@@H]1C[C@H](C2CCNCC2)[C@@H](O)[C@H]1O"
reportedproperty = "ΔTm at 500 µM"
val = "15 to 20 °C"

[[record]]
compound = "CCC(C)c1cn([C@@H]2C[C@H](CNCCCNCCc3ccccc3)[C@@H](O)[C@H]2O)c2ncnc(N)c12 (stereo partly shown)"
reportedproperty = "ΔTm at 500 µM"
val = "10 to 15 °C"

[[record]]
compound = "Nc1ncnc2c1ccn2[C@@H]1C[C@H](CN(CCCNCCc2ccc(F)cc2)c2c[nH]nc2Br)[C@@H](O)[C@H]1O"
reportedproperty = "ΔTm at 500 µM"
val = "15 to 20 °C"

[[record]]
compound = "Nc1ncnc2c1ccn2[C@@H]1C[C@H](c2cc(Cl)cc(Cl)c2)[C@@H](O)[C@H]1O"
reportedproperty = "ΔTm at 500 µM"
val = "≤ 10 °C"

[[record]]
compound = "CNc1ncnc2c1ccn2[C@@H]1C[C@H](CN2CC(CNCCc3ccc4ccccc4c3)C2)[C@@H](O)[C@H]1O"
reportedproperty = "ΔTm at 500 µM"
val = "≤ 10 °C"

[[record]]
compound = "CC1CCNc2ncnc3c2c1cn3[C@@H]1C[C@H](CN)[C@@H](O)[C@H]1O (stereo partly shown)"
reportedproperty = "ΔTm at 500 µM"
val = "≤ 10 °C"

[[record]]
compound = "CNc1ncnc2c1ccn2[C@@H]1C[C@H](C[S+]([O-])CCCNCCc2ccccc2)[C@@H](O)[C@H]1O (stereo partly shown)"
reportedproperty = "ΔTm at 500 µM"
val = "≤ 10 °C"

[[record]]
compound = "O[C@@H]1[C@@H](CNCCCNCCc2ccccc2)C[C@@H](n2cc(-c3nc(Cc4ccccc4)cs3)c3cncnc32)[C@@H]1O"
reportedproperty = "ΔTm at 500 µM"
val = "10 to 15 °C"

[[record]]
compound = "CN(C)C(=O)[C@H]1C[C@@H](n2cc3c4c(ncnc42)NCCC3)[C@H](O)[C@@H]1O"
reportedproperty = "ΔTm at 500 µM"
val = "≤ 10 °C"

[[record]]
compound = "CNc1ncnc2c1ccn2[C@@H]1C[C@H](CN(C[C@H]2CCCNC2)c2cncs2)[C@@H](O)[C@H]1O"
reportedproperty = "ΔTm at 500 µM"
val = "≤ 10 °C"

[[record]]
compound = "Nc1ncnc2c1c(-c1ccccc1)cn2[C@@H]1C[C@H](CNCCCNCCc2cccc(Oc3ccccc3)c2)[C@@H](O)[C@H]1O"
reportedproperty = "ΔTm at 500 µM"
val = "15 to 20 °C"

[[record]]
compound = "CCc1cn([C@@H]2C[C@H](CNCCCNCCc3ccccc3)[C@@H](O)[C@H]2O)c2ncnc(Cl)c12"
reportedproperty = "ΔTm at 500 µM"
val = "≤ 10 °C"

[[record]]
compound = "CCNC(=O)NCCCNC(=O)[C@H]1O[C@@H](n2cnc3c(N)ncnc32)[C@H](O)[C@@H]1O"
reportedproperty = "ΔTm at 500 µM"
val = "≤ 10 °C"

[[record]]
compound = "Nc1ncnc2c1c(C1CC1)cn2[C@@H]1C[C@H](CNCCCNCCc2ccccc2)[C@@H](O)[C@H]1O"
reportedproperty = "ΔTm at 500 µM"
val = "15 to 20 °C"

[[record]]
compound = "C=Cc1cn([C@@H]2C[C@H](CNCCCNCCc3ccccc3)[C@@H](O)[C@H]2O)c2ncnc(Cl)c12"
reportedproperty = "ΔTm at 500 µM"
val = "≤ 10 °C"

[[record]]
compound = "Nc1ncnc2c1c(Br)cn2[C@@H]1C[C@H](CNCCCNCCc2cccc(Oc3ccccc3)c2)[C@@H](O)[C@H]1O"
reportedproperty = "ΔTm at 500 µM"
val = "15 to 20 °C"

[[record]]
compound = "CNc1ncnc2c1ccn2[C@@H]1C[C@H](C(=O)NCC2CCCNC2)[C@@H](O)[C@H]1O (stereo partly shown)"
reportedproperty = "ΔTm at 500 µM"
val = "≤ 10 °C"

[[record]]
compound = "Nc1ncnc2c1c(Br)cn2[C@@H]1C[C@H](CNCCCNCCc2ccccc2)[C@@H](O)[C@H]1O"
reportedproperty = "ΔTm at 500 µM"
val = "15 to 20 °C"

[[record]]
compound = "Nc1ncnc2c1c(-c1nc(Cc3ccccc3)cs1)cn2[C@@H]1C[C@H](C2CCNCC2)[C@@H](O)[C@H]1O"
reportedproperty = "ΔTm at 500 µM"
val = "10 to 15 °C"

[[record]]
compound = "COCCn1cc(COc2ccc(CNCCCNC[C@H]3O[C@@H](n4cnc5c(N)ncnc54)[C@H](O)[C@@H]3O)cc2)nn1"
reportedproperty = "ΔTm at 500 µM"
val = "≤ 10 °C"

[[record]]
compound = "CS(=O)(=O)n1ccc(-c2cn([C@@H]3C[C@H](CNCCCNCCc4ccccc4)[C@@H](O)[C@H]3O)c3ncncc23)n1"
reportedproperty = "ΔTm at 500 µM"
val = "10 to 15 °C"

[[record]]
compound = "CNc1ncnc2c1ccn2[C@@H]1C[C@H](C(=O)N(C)CCCNCCc2cccc(Oc3ccccc3)c2)[C@@H](O)[C@H]1O"
reportedproperty = "ΔTm at 500 µM"
val = "10 to 15 °C"

